- Test system: VEGF-stimulated ADSC/ECFC co-culture, nuclear area imaging
- Run description: nuclear area loss in endothelial-stromal co-culture, dose response, cell-based, VEGF stimulation, IC50 (AID 1117324)
Activity calls are given as the source filed them. No rule for the calls is given here.
Select the matching outcome among active, inactive

Please review the following examples before continuing.
Fill in: this test's call for CC(C)(CO)[C@@H](O)C(=O)NCCC(=O)NCCSSCCNC(=O)CCNC(=O)[C@H](O)C(C)(C)CO is ___
inactive

Hi team, can someone confirm the assay call for COC(=O)C(Cl)C(=O)OC ?
inactive

// param item: O=C1c2c(O)ccc(O)c2C(=O)c2c(NCCNCCO)ccc(NCCNCCO)c21 ; yields the recorded call
active

Which outcome was entered for the molecule O=c1[nH]c(=O)n([C@H]2C[C@H](O)[C@@H](CO)O2)cc1I in this test?
inactive

Dear colleague, could you share the recorded outcome for Cn1cc(S(C)=O)c(=O)c2ccc(F)cc21 (stereo not given) when you have a moment?
inactive

// return assay outcome for O=[N+]([O-])C(Br)(CO)CO
inactive

How was N/C(=N\N=C\c1ccc(Cl)cc1)N/N=C/c1ccc(Cl)cc1 classified in this test?
inactive

Query: recorded result category for Clc1ccc(CO/N=C(\Cn2ccnc2)c2ccc(Cl)cc2Cl)c(Cl)c1 in this test
inactive

More entries:
I'd appreciate the recorded outcome for Nc1cc(C(F)(F)F)ccc1S from this test.
inactive

Dear all, I need the recorded test outcome for CC[C@H](C)C(=O)O[C@H]1C[C@@H](C)C=C2C=C[C@H](C)[C@H](CC[C@@H]3C[C@@H](O)CC(=O)O3)[C@H]21 , thank you.
inactive

Call for entry CC(=O)[C@]1(O)Cc2c(O)c3c(c(O)c2[C@@H](O[C@H]2C[C@H](N)[C@H](O)[C@H](C)O2)C1)C(=O)c1ccccc1C3=O :
active

Fill in: this test's call for Cc1nc(Nc2ncc(C(=O)Nc3c(C)cccc3Cl)s2)cc(N2CCN(CCO)CC2)n1 is ___
inactive

Hi, do you know how ClC1=C(Cl)C2(Cl)C(CBr)CC1(Cl)C2(Cl)Cl (stereo not given) came out in this test?
inactive

Look up the recorded call for CCCCCCCCCCCCCCCC[n+]1ccccc1 in this test.
active

Lab log entry: Cc1c(C)c2c(c(C)c1O)CCC(C)(COc1ccc(CC3SC(=O)NC3=O)cc1)O2 (stereo not given) — outcome as called in the assay?
inactive

====

- Tested on: VEGF-stimulated ADSC/ECFC co-culture, nuclear area imaging
- Run description: nuclear area loss in endothelial-stromal co-culture, dose response, cell-based, VEGF stimulation, IC50 (AID 1117324)
The source made the active and inactive calls. No rule for the calls is given here.
Pick one: y for active, n for inactive

Answered cases to consult:
Could you kindly confirm the outcome this assay logged for Nc1nc(=O)n([C@@H]2O[C@H](CO)[C@@H](O)[C@@H]2F)cc1I ?
n

Called result for COc1cccc2c1C(=O)c1c(O)c3c(c(O)c1C2=O)C[C@@](O)(C(=O)CO)CC3OC1CC(N2CCOC(OC)C2)C(O)C(C)O1 (some centres undefined)
y

***
Called result for CC(C)CCCC(C)NCCC(C)C (centres undefined)
n

Answer briefly: the call reported for NC(=O)c1cccnc1 in this assay.
n

====

- Test system: VEGF-stimulated ADSC/ECFC co-culture, nuclear area imaging
- Run description: nuclear area loss in endothelial-stromal co-culture, dose response, cell-based, VEGF stimulation, IC50 (AID 1117324)
Calls of active or inactive are those of the source. The rule behind the calls is not given here.
// one of active, inactive, no free text

// return assay outcome for O=C(NC(=O)c1c(F)cccc1F)Nc1ccc(Cl)c(Oc2ncc(C(F)(F)F)cc2Cl)c1
inactive

Outcome? Cc1cc(N)c2ccccc2[n+]1CCCCCCCCCC[n+]1c(C)cc(N)c2ccccc21
inactive

Per the assay record, what outcome was assigned to Oc1c(Cl)cc(Cl)c2cccnc12 ?
inactive

Others:
Dear colleague, could you share the recorded outcome for CCCCCCCCCCC[C@@H](C[C@@H]1OC(=O)[C@H]1CCCCCC)OC(=O)[C@H](CC(C)C)NC=O when you have a moment?
inactive

How did this test come out for O=C1C2CC=CCC2C(=O)N1SC(Cl)(Cl)Cl (stereo not given) ?
inactive

GET /call?item= COC(=O)c1ccccc1C(=O)OC returns the recorded outcome of this test.
inactive

Please state the recorded outcome for this compound: CCCCCCCCCCCCCCCCCCCCCC(=O)Nc1ccn([C@@H]2O[C@H](CO)[C@@H](O)[C@H]2O)c(=O)n1
inactive

====

- Tested on: VEGF-stimulated ADSC/ECFC co-culture, nuclear area imaging
- Run description: nuclear area loss in endothelial-stromal co-culture, dose response, cell-based, VEGF stimulation, IC50 (AID 1117324)
Activity calls are given as the source filed them. How the calls were made is not given here.
Write down the outcome that applies. Available outcomes: active, inactive

A selection of reference data follows.
# fetch the recorded call for CCN(CC)C(=O)/C(C#N)=C/c1cc(O)c(O)c([N+](=O)[O-])c1 here
inactive

How did this test come out for CC[C@]1(O)CC[C@H]2[C@@H]3CCC4=CCCC[C@@H]4[C@H]3CC[C@@]21C ?
inactive

Tell me the recorded outcome of this test for O=C(OCc1ccccc1)c1cccnc1 .
inactive

Please indicate how the test categorized CCCCC(CC)COC(=O)CC(C(=O)OCC(CC)CCCC)S(=O)(=O)O (stereo not given) .
inactive

// return assay outcome for CC(=O)Oc1ccccc1C(=O)Nc1ncc([N+](=O)[O-])s1
inactive

Called result for C=CCN1CC[C@]23CCCC[C@H]2[C@H]1Cc1ccc(O)cc13
inactive

Continuing:
Hi team, can someone confirm the assay call for CC(=O)Oc1ccc(C2(c3ccc(OC(C)=O)cc3)C(=O)Nc3ccccc32)cc1 ?
inactive

Record lookup: outcome of this test for COC(=O)N[C@H](C(=O)N[C@@H](Cc1ccccc1)[C@@H](O)CN(Cc1ccc(-c2ccccn2)cc1)NC(=O)[C@@H](NC(=O)OC)C(C)(C)C)C(C)(C)C ?
inactive

Which outcome was entered for the compound Oc1c(I)cc(Cl)c2cccnc12 in this test?
inactive

Could you please tell me the result logged for COc1cccc2c1C(=O)c1c(O)c3c(c(O)c1C2=O)C[C@@](O)(C(=O)CO)C[C@@H]3O[C@H]1C[C@H](N)[C@H](O[C@@H]2CCCCO2)[C@H](C)O1 in this assay?
active

Query: recorded result category for Clc1ccc(C(Cn2ccnc2)OCc2ccc(Sc3ccccc3)cc2)c(Cl)c1 (stereo not given) in this test
inactive

====

- Tested on: VEGF-stimulated ADSC/ECFC co-culture, nuclear area imaging
- Run description: nuclear area loss in endothelial-stromal co-culture, dose response, cell-based, VEGF stimulation, IC50 (AID 1117324)
The source made the active and inactive calls. The rule behind the calls is not given here.
Entry note: the call must match one of y for active, n for inactive

Answered cases to consult:
Answer briefly: the call reported for CCCn1cnc2c1c(=O)n(CCCCC(C)=O)c(=O)n2C in this assay.
n

Recorded test call requested for CCCCCCCCCCCCCCNCCO
n

Field: outcome | Entry: COCC(=O)O[C@]1(CCN(C)CCCc2nc3ccccc3[nH]2)CCc2cc(F)ccc2[C@@H]1C(C)C
n

Assay outcome for COc1ccccc1OCCNCC(O)COc1cccc2[nH]c3ccccc3c12 (centres undefined) : what was it?
n

# fetch the recorded call for CCCCCCCCCCCCCCCC[N+](C)(C)Cc1ccccc1 here
n

// outcome(item) with item = COCC(C)N(C(=O)CCl)c1c(C)csc1C (centres undefined)
n

Kindly review the next compound as well.
Hi, do you know how O=C(O)c1ccc2[nH]cc(CCCCN3CC=C(c4ccccc4)CC3)c2c1 came out in this test?
n

====

- Test system: VEGF-stimulated ADSC/ECFC co-culture, nuclear area imaging
- Run description: nuclear area loss in endothelial-stromal co-culture, dose response, cell-based, VEGF stimulation, IC50 (AID 1117324)
Active and inactive are the calls of the source. How the calls were made is not given here.
Assay metric: IC50

Answered cases to consult:
Please fill in: IC50 reported for CN(C)c1ccc(C(=C2C=CC(=[N+](C)C)C=C2)c2ccc(N(C)C)cc2)cc1 = 1.83 µM

# molecule O=C(Nc1ccc(Oc2ccc(Cl)cc2)c(Cl)c1)c1cc(I)cc(I)c1O ; its IC50 = 6.57 µM (inactive)

For CN(C)CCOC1=Cc2ccccc2Sc2ccc(Cl)cc21 the molecule record lists IC50 as > 10 µM (inactive)

The molecule identified as O[C@@H](CNC[C@H](O)[C@H]1CCc2cc(F)ccc2O1)[C@@H]1CCc2cc(F)ccc2O1 registered its IC50 at > 10 µM (inactive)

So, COc1ccccc1N1CCN(CC(O)COc2cc(OC)c(OC)c(OC)c2)CC1 (configuration not stated) ? Its IC50 was > 10 µM (inactive)

The measured IC50 associated with Cc1cc(C2CCCCC2)n(O)c(=O)c1 reads > 10 µM (inactive)

Next:
So, O=C(N/N=C/c1ccccc1O)c1ccncc1 ? Its IC50 was > 10 µM (inactive)

The molecule listed as Cc1ccc2nc(N)[nH]c(=O)c2c1Sc1ccncc1 has a reported IC50 of > 10 µM (inactive)

Per the records, this molecule ( CCN1CCC[C@H]1CNC(=O)c1c(OC)ccc(Br)c1OC ) has IC50 equal to > 10 µM (inactive)

Entry Clc1ccc(C(Cn2ccnc2)OCc2ccsc2Cl)c(Cl)c1 (configuration not stated) , IC50 reported as 9.47 µM (inactive)

Notebook: Cc1ccc2c(Br)cc(Br)c(O)c2n1 , IC50 read as > 10 µM (inactive)

Per the records, this molecule ( CC(C)=CCOc1ccc(/C=C/C(=O)c2ccc(OCC=C(C)C)cc2OCC(=O)O)cc1 ) has IC50 equal to > 10 µM (inactive)

Sure, the documented IC50 for CN1CCN(C2Cc3ccccc3Sc3ccc(Cl)cc32)CC1 (configuration not stated) is > 10 µM (inactive)

Data origin, for the record: PubChem BioAssay AID1117324
